# experimental-system: Cannabinoid receptor 2 (Homo sapiens, UniProt P34972)
# Sequence (P34972 whole entry): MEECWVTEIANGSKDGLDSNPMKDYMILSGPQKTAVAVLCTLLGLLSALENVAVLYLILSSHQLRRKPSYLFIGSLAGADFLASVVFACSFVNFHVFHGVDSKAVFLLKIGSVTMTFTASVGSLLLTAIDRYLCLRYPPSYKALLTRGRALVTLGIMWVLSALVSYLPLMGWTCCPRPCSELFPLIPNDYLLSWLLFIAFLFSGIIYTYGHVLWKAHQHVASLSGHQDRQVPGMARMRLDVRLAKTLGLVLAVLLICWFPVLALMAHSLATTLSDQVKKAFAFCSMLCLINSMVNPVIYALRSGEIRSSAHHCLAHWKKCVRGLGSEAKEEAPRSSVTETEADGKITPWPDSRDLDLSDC
# assay-info: Displacement of [3H](R)-3-methyl-2-(3-(morpholinomethyl)-3,4-dihydro-2H-benzo[b][1,4]oxazin-5-yl)-1-(naphthalen-1-yl)but-2-en-1-one from human CB2 receptor expressed in CHO cells at 1 uM by liquid scintillation counting
# Assay type: cell-based
Class True: Activity at least 30%. Class False: Activity below 30%.

>>> answer_label("CCCCCCN1C(=O)/C(=N\\NC(=O)c2ccccc2)c2cc(C)ccc21")
"False"
>>> answer_label("O=C(N/N=C1\\C(=O)N(c2ccccc2)c2ccccc21)c1ccccc1")
"False"
>>> answer_label("CCCCCCCCCCCCN1C(=O)/C(=N\\NC(=O)c2ccccc2)c2ccccc21")
"False"
>>> answer_label("CCCN1C(=O)/C(=N\\NC(=O)c2ccccc2)c2ccccc21")
"True"
>>> answer_label("CCCCCCN1C(=O)/C(=N\\NC(=O)c2ccc(Cl)cc2)c2ccccc21")
"True"

###

# experimental-system: Cannabinoid receptor 1 (Homo sapiens)
# assay-info: Displacement of [3H]CP-55940 from human CB1 receptor expressed in CHO cells at 1 uM by liquid scintillation counting
# Format: cell-based
Measured Activity, listed per entry.
quantity-measured: Activity (%)

>>> experimental_value("CCCCCCN1C(=O)/C(=N\\NC(=O)c2ccccc2)c2cccc(Cl)c21")
60
>>> experimental_value("CCCCCCN1C(=O)/C(=N\\NC(=O)c2ccccc2)c2cc(OC)ccc21")
26
>>> experimental_value("O=C(N/N=C1\\C(=O)N(CCN2C(=O)c3ccccc3C2=O)c2ccccc21)c1ccccc1")
3
>>> experimental_value("CCCCCCCCCCCCN1C(=O)/C(=N\\NC(=O)c2ccccc2)c2ccccc21")
23.8
>>> experimental_value("O=C(N/N=C1\\C(=O)N(Cc2ccc(Cl)cc2)c2ccccc21)c1ccccc1")
94.5
>>> experimental_value("CCCCCCN1C(=O)/C(=N\\NC(=O)c2ccccc2)c2cc(C)ccc21")
22
>>> experimental_value("CCCCCCN1C(=O)/C(=N\\NC(=O)c2ccccc2)c2cccc(I)c21")
61
>>> experimental_value("CCCN1C(=O)/C(=N\\NC(=O)c2ccccc2)c2ccccc21")
43
>>> experimental_value("CCCCCCN1C(=O)/C(=N\\NC(=O)c2ccc(Cl)cc2)c2ccccc21")
46.6

###

# experimental-system: Cannabinoid receptor 2 (Homo sapiens)
# assay-info: Displacement of [3H](R)-3-methyl-2-(3-(morpholinomethyl)-3,4-dihydro-2H-benzo[b][1,4]oxazin-5-yl)-1-(naphthalen-1-yl)but-2-en-1-one from human CB2 receptor expressed in CHO cells at 1 uM by liquid scintillation counting
# Format: cell-based
quantity-measured: Activity (%)

>>> experimental_value("CCCCCN1C(=O)/C(=N\\NC(=O)c2ccccc2)c2ccccc21")
80
>>> experimental_value("CCCCCCN1C(=O)/C(=N\\NC(=O)c2ccccc2)c2cccc(I)c21")
66
>>> experimental_value("O=C(N/N=C1\\C(=O)N(CC2CCCCC2)c2ccccc21)c1ccccc1")
100
>>> experimental_value("CCCCCCN1C(=O)/C(=N\\NC(=O)c2ccccc2)c2cc(Cl)ccc21")
6
>>> experimental_value("CCCCCCN1C(=O)/C(=N\\NC(=O)c2ccccc2)c2cc(OC)ccc21")
17
>>> experimental_value("CCCCCCN1C(=O)/C(=N\\NC(=O)c2cccc3ccccc23)c2ccccc21")
69.8
>>> experimental_value("CCCCCCN1C(=O)/C(=N\\NC(=O)CCCCC)c2ccccc21")
36.6
>>> experimental_value("CCCCCN1C(=O)/C(=N\\NC(=O)c2ccccc2)c2cc(I)ccc21")
10
>>> experimental_value("CCCCCCN1C(=O)/C(=N\\NC(=O)C23CC4CC(CC(C4)C2)C3)c2ccccc21")
90.7
>>> experimental_value("CCCCCCN1C(=O)/C(=N\\NC(=O)c2ccccc2)c2cccc(Cl)c21")
29
>>> experimental_value("CCCCCCN1C(=O)/C(=N/NC(=O)OC(C)(C)C)c2ccccc21")
27
